Test system: dengue virus type 2
Assay: Antiviral activity against Dengue virus 2 infected in human HuH7 cells after 48 hrs by CFI assay
Format: functional, organism-based
Conditions: Huh-7, 48 h
recorded-endpoint: EC50 (µM)
Please respond with the number in µM and leave the unit unwritten.

Q: Request - read-out EC50 | tested on dengue virus type 2 | compound `Cc1cc(N2CCN(C)CC2)ccc1NC(=O)c1c2c(nc3ccccc13)CCN(Cc1ccccc1)C2`
A: 5

----------
System: dengue virus type 1
Assay: Antiviral activity against Dengue virus 1 West Pacific infected in human A549 cells assessed as reduction in viral titer after 48 hrs by plaque assay
Format: functional, organism-based
Conditions: A549, 48 h
recorded-endpoint: EC50

Q: What does the record list as EC50 for `O=C1C[C@]2(C(=O)Nc3ccc(Cl)cc32)c2cnn(Cc3ccc(Cl)cc3)c2N1` ?
A: > 20 µM

----------
Target: DEN4V NS2B-G4SG4NS3 serine protease (Dengue virus type 4)
Test: Inhibition of Dengue virus 4 NS2B-NS3 protease expressed in Escherichia coli using Abz-RRRRSAG-nY-NH2 as substrate preincubated for 20 mins followed by addition of substrate measured after 60 mins by fluorescence assay
Where a SMILES comes first, the peptide text is derived from it.
recorded-endpoint: pKi
// field semantics: pKi = negative decimal log of concentration (mol/L)

Q: Can you share its pKi? I mean this compound: NC(=O)[C@H](Cc1c[nH]c2ccccc12)NC(=O)[C@H](CS)NC(=O)[C@H](Cc1ccc(O)cc1)NC(=O)[C@@H](N)Cc1c[nH]c2ccccc12 (H-WYCW-NH2)
A: 4.95

----------
Assay: Cytotoxicity against BHK21 cells assessed as cell viability after 24 hrs by ATP-Lite assay
Format: cell-based, Mesocricetus auratus, BHK-21
Conditions: hamster
recorded-endpoint: CC50 at 24 h (µM)
Use µM as the unit, but write only the number.

Q: What does the data say about its CC50 at 24 h? Entry: `Nc1cc(N)c(/N=N/c2ccc(S(=O)(=O)Nc3nccs3)cc2)cc1/N=N/c1ccc(S(=O)(=O)Nc2nccs2)cc1`
A: 213

----------
Experiment: Cytotoxicity against BHK21 cells after 24 hrs by CellTiter-Glo luminescent assay
Assay type: cell-based, Mesocricetus auratus, BHK-21
Details: hamster
recorded-endpoint: CC50 at 24 h (µM)
Entry rule: numbers only, all in µM.

Q: Reported CC50 at 24 h for `CCN(CC)Cc1cc(Nc2ccnc3cc(Cl)ccc23)ccc1O` : what is it?
A: 52.1

----------
Molecular target: Genome polyprotein (dengue virus type 2)
Assay: Inhibition of recombinant Dengue virus 2 S-16803 NS2B-NS3 protease using Bz-nKRRAMC as substrate preincubated with enzyme followed by substrate addition measured after 20 mins by fluorescence assay
Sequence (P29990 1346-1475 limits assumed): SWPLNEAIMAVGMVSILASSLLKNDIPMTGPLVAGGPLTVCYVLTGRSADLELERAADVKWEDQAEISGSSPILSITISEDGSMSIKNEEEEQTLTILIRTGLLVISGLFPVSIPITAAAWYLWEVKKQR
Sequence (P29990 1476-2093 limits assumed): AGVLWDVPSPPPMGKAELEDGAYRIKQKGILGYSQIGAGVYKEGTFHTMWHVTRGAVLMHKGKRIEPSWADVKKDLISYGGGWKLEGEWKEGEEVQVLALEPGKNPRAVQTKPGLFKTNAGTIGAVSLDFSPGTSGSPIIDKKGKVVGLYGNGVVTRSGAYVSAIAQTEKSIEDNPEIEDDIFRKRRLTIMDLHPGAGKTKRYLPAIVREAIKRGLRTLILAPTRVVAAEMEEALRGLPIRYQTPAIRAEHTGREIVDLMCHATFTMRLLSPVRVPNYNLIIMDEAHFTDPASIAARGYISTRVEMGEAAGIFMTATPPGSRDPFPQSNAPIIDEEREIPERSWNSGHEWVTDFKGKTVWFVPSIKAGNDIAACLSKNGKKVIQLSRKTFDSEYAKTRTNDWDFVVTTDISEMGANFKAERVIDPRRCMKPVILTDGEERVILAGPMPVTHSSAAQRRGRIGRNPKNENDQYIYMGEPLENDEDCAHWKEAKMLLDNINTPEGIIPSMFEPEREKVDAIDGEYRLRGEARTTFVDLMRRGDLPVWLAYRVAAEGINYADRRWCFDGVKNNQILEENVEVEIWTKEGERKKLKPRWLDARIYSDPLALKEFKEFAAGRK
recorded-endpoint: pIC50
In simple prose, pIC50 is minus the logarithm base ten of a concentration in moles per litre.

Q: # get_value(readout='pIC50', item= `N#C/C(=C\c1ccc(-c2ccc(C(=O)O)cc2)s1)c1nc2cc(Cl)ccc2[nH]1` )
A: 5.23

----------
Molecular target: Genome polyprotein (dengue virus type 2, UniProt P29990)
Assay: Inhibition of RNA unwinding activity of thioredoxin/His6 tagged Dengue virus 2 TSV01 NS3 helicase (171 to 618 residues) expressed in Escherichia coli Rosetta (DE3) using Cy5-MBHA as substrate by fluorescence assay
Sequence (P29990 1476-2093 limits assumed): as above
recorded-endpoint: pIC50
pIC50 field: float, defined as -log10 of concentration (mol/L).

Q: Report pIC50 for `Cc1ccc2nc(-c3ccc4nc(-c5ccc(NC(=O)c6ccc7nc(-c8ccc(N)cc8)sc7c6)cc5)sc4c3)sc2c1S(=O)(=O)O` please.
A: 5.82
